target-system: JAK1 (Homo sapiens (Human), UniProt P23458)
Sequence (P23458 875-1153): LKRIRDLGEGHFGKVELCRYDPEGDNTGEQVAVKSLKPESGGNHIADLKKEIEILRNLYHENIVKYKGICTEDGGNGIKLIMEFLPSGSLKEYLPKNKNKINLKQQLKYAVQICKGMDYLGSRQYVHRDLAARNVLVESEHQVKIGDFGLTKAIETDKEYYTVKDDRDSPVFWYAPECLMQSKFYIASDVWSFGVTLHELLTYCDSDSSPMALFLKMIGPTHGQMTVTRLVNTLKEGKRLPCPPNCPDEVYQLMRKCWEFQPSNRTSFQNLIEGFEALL
test-description: Jak biochemical HTRF assay, JAK1
assay-conditions: HTRF biochemical assay, recombinant GST-tagged catalytic domain; read-out: JAK1 IC50
property-name: log10 IC50 (log10 of the value in nM)

>>> experimental_result("N#C[C@H]1CCCC[C@@H]1n1nc(Nc2ccc(-c3ncon3)cc2)c2c(=O)[nH]ccc21")
-0.29
>>> experimental_result("CC1c2cc(Nc3nn([C@H]4CCCC[C@@H]4C#N)c4cc[nH]c(=O)c34)ccc2S(=O)(=O)N1C (single isomer, unassigned) [Example 3-126]")
-1.11
>>> experimental_result("COCCNS(=O)(=O)c1ccc(Nc2nn([C@H]3CCCC[C@@H]3C#N)c3cc[nH]c(=O)c23)cc1")
-0.77
>>> experimental_result("N#C[C@H]1CCCC[C@@H]1n1nc(Nc2ccc(Cn3nccn3)cc2)c2c(=O)[nH]ccc21")
-0.43
>>> experimental_result("C[C@H](NC1CCC(n2nc(Nc3ccc(Cl)cc3)c3c(=O)[nH]ccc32)C(C#N)C1)C1CC1 (stereo in doubt) [Example 4-1]")
0.72
>>> experimental_result("N#C[C@H]1CCC[C@@H]1n1nc(Nc2ccc(C3(C(F)(F)F)CCCCN3)cc2)c2c(=O)[nH]ccc21 (single isomer, unassigned) [Example 15-72]")
-1.11
>>> experimental_result("N#C[C@H]1CCCC[C@@H]1n1nc(Nc2ccc3c(c2)CN(CC2CCCC2)S3(=O)=O)c2c(=O)[nH]ccc21")
-0.92
>>> experimental_result("N#C[C@H]1CCCC[C@@H]1n1nc(Nc2ccc3c(c2)CN(CC2CCCC2)C3)c2c(=O)[nH]ccc21")
-0.48
>>> experimental_result("N#C[C@H]1CCCC[C@@H]1n1nc(Nc2ccc(C(O)C(F)(F)F)cc2)c2c(=O)[nH]ccc21 (single isomer, unassigned) [Example 3-8]")
-0.89
>>> experimental_result("CC(C)(C)N1Cc2cc(Nc3nn([C@H]4CCCC[C@@H]4C#N)c4cc[nH]c(=O)c34)ccc2S1(=O)=O")
-1.41
>>> experimental_result("N#CCC1(n2nc(Nc3ccc(C(N)C(F)F)cc3)c3c(=O)[nH]ccc32)CCCCC1 (single isomer, unassigned) [Example 9-1]")
-0.72
>>> experimental_result("N#C[C@H]1CCCC[C@@H]1n1nc(Nc2cccc(Cn3cccn3)c2)c2c(=O)[nH]ccc21")
0.15
>>> experimental_result("CC1(c2ccc(Nc3nn([C@H]4CCCC[C@@H]4C#N)c4cc[nH]c(=O)c34)cc2)COC1")
-0.66
